Recorded Similarity analysis: discrimination rate vs Risperidone values for a group of molecules are listed next.
Test system: behaviors of compound-treated mice
Assay: SmartCube behavioral signature and similarity analysis to atypical antipsychotics
Type: in vivo, mouse
Settings: 25 mg/kg i.p.; rate of 0.70 or lower = similar, 0.5 = zero distinguishability
Text: In addition to the reversal of L-687,414 induced hyperlocomotion experiment as described above, some compounds of the present invention have been tested in SmartCube®, an automated system in which the behaviors of compound-treated mice in response to multiple challenges are captured by digital video and analyzed with computer algorithms (Roberds et al., Frontiers in Neuroscience, 2011, Vol. 5, Art. 103, 1-4). […]
Form rule: numeric answer, no unit written next to it.

- Cc1cc(-c2ncc(-c3ccc4c(c3)NC(=O)C4(C)C)o2)ccn1: 0.60
- CC1(C)C(=O)Nc2cc(-c3cn(-c4cccnc4)cn3)ccc21: 0.60
- Cc1cc(-n2cnc(-c3ccc4c(c3)N(C)C(=O)C4(C)C)c2)ccn1: 0.58

We now examine a further molecule.
What value of Similarity analysis: discrimination rate vs Risperidone has been reported for the following molecule? `CC1(C)C(=O)Nc2cc(-n3cnc(-c4ccncc4)c3)ccc21`
0.64

---

tested on: behaviors of compound-treated mice; experiment: SmartCube behavioral signature and similarity analysis to atypical antipsychotics; assay type: in vivo, mouse; conditions: 25 mg/kg i.p.; rate of 0.70 or lower = similar, 0.5 = zero distinguishability
As shown below, each of these compounds has a reported Similarity analysis: discrimination rate vs Olanzapine value.

What value of measured Similarity analysis: discrimination rate vs Olanzapine is listed for `Cc1cc(-c2ncc(-c3ccc4c(c3)NC(=O)C4(C)C)o2)ccn1` ?
0.75

Entry `CC1(C)C(=O)Nc2cc(-n3cnc(-c4ccncc4)c3)ccc21` has what Similarity analysis: discrimination rate vs Olanzapine?
0.68

GET /values?readout=Similarity analysis: discrimination rate vs Olanzapine&item= `Cc1cc(-n2cnc(-c3ccc4c(c3)N(C)C(=O)C4(C)C)c2)ccn1`
0.62

Fill in the blank: the reported Similarity analysis: discrimination rate vs Olanzapine of `CC1(C)C(=O)Nc2cc(-c3cn(-c4cccnc4)cn3)ccc21` is ____.
0.68
